# System: Pasteurella multocida
# assay.name: Ratio of MIC for Pasteurella multocida AL435 to MIC for TolC deficient Pasteurella multocida pm1980
# Format: functional
property.name: Ratio
In your answer, state the number alone without any accompanying words.

Completed entries (count: 3):
>  <macromolecule.sequence>
GENTAMICIN

>  <Ratio>
0.5

$$$$
>  <macromolecule.sequence>
NEOMYCIN SULFATE

>  <Ratio>
0.125

$$$$
>  <macromolecule.sequence>
SPIRAMYCIN

>  <Ratio>
1

$$$$

API: the following record is the query input.
Name the recorded Ratio for POLYMYXIN B .
1

###

# System: Pasteurella multocida
# assay.name: Antibacterial activity against TolC deficient Pasteurella multocida pm0527 after 24 hrs by broth dilution method
# Type: functional
# condition.context: pm0527, 24 h
property.name: MIC
Kindly write the number and append the unit.

Illustrative cases are given below, each with its answer.
>  <molecule>
Nc1ccc(S(=O)(=O)Nc2nccs2)cc1

>  <subject.of.test>
Pasteurella multocida

>  <MIC>
625 µg/mL

$$$$
>  <molecule>
O=P1(N(CCCl)CCCl)NCCCO1 (stereo not drawn) [CYCLOPHOSPHAMIDE ANHYDROUS]

>  <subject.of.test>
Pasteurella multocida

>  <MIC>
4000 µg/mL

$$$$

Please give the measured MIC for this molecule: CN[C@H](CC(C)C)C(=O)N[C@H]1C(=O)N[C@@H](CC(N)=O)C(=O)N[C@H]2C(=O)N[C@H]3C(=O)N[C@H](C(=O)N[C@H](C(=O)O)c4cc(O)cc(O)c4-c4cc3ccc4O)[C@H](O)c3ccc(c(Cl)c3)Oc3cc2cc(c3O[C@@H]2O[C@H](CO)[C@@H](O)[C@H](O)[C@H]2O[C@H]2C[C@](C)(N)[C@H](O)[C@H](C)O2)Oc2ccc(cc2Cl)[C@H]1O
125 µg/mL

I have this molecule here, CC[C@H]1OC(=O)[C@H](C)[C@@H](O[C@H]2C[C@@](C)(OC)[C@@H](O)[C@H](C)O2)[C@H](C)[C@@H](O[C@@H]2O[C@H](C)C[C@H](N(C)C)[C@H]2O)[C@](C)(O)C[C@@H](C)C(=O)[C@H](C)[C@@H](O)[C@]1(C)O , and I need its recorded MIC.
0.47 µg/mL

What does the data say about its MIC? Entry: CO[C@@H]1[C@@H](OC(N)=O)[C@@H](O)[C@H](Oc2ccc3c(O)c(NC(=O)c4ccc(O)c(CC=C(C)C)c4)c(=O)oc3c2C)OC1(C)C
2.5 µg/mL

Field request: MIC | item: CCCCc1ccc(C(=O)O)nc1
50 µg/mL

###

Catalogue of log10 MIC readings, one per entry.
# Tested on: Pasteurella multocida
# assay.name: Antibacterial activity against TolC deficient Pasteurella multocida pm0527 after 24 hrs by broth dilution method
# Format: functional
# condition.context: pm0527, 24 h
// stored as log10 of MIC expressed in µg/mL

Record excerpt, results attached:
>  <mol>
O=C(N[C@H](CO)[C@H](O)c1ccc([N+](=O)[O-])cc1)C(Cl)Cl

>  <log10 MIC>
-0.30

$$$$
>  <mol>
COc1cc(Cc2cnc(N)nc2N)cc(OC)c1OC

>  <log10 MIC>
-0.60

$$$$
>  <mol>
CO[C@H]1/C=C/O[C@@]2(C)Oc3c(C)c(O)c4c(O)c(c(/C=N/N5CCN(C)CC5)c(O)c4c3C2=O)NC(=O)/C(C)=C\C=C\[C@H](C)[C@H](O)[C@@H](C)[C@@H](O)[C@@H](C)[C@H](OC(C)=O)[C@@H]1C

>  <log10 MIC>
-1.00

$$$$
>  <mol>
O[C@@H](CS)[C@@H](O)CS

>  <log10 MIC>
3.30

$$$$

# next compound below
GET /values?readout=log10 MIC&item= CN(C)c1ccc2cc3ccc(N(C)C)cc3nc2c1
-0.63
